Molecular target: B. taurus (heart) complex I (Bos taurus, UniProt P03887+P17694+P42026)
Sequence (P03887 whole entry): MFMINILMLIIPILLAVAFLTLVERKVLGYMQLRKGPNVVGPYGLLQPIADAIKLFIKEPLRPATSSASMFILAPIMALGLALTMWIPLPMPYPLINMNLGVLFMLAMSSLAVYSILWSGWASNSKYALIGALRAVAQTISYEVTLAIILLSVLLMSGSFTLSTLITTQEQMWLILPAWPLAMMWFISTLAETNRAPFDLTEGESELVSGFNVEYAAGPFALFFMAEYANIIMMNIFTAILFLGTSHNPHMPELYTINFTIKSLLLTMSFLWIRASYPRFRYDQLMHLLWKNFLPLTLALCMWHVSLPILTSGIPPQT
Sequence (P17694 34-463): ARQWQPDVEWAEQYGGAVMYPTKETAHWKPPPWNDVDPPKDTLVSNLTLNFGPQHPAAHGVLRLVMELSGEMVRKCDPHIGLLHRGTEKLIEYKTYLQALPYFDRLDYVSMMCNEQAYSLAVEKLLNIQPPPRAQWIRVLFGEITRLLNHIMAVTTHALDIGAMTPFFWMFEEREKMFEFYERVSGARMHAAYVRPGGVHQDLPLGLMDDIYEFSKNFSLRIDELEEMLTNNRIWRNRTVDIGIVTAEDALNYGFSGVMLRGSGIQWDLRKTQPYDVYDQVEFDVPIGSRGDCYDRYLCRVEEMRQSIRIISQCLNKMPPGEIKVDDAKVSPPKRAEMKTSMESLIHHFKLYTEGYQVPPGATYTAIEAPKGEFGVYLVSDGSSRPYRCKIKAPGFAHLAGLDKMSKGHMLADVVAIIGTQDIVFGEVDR
Sequence (P42026 38-216): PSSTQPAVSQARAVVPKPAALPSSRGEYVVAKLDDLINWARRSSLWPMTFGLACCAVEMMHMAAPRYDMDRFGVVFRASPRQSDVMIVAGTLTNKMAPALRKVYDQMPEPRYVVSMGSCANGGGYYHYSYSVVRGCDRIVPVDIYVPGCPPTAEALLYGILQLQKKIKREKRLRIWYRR
Assay: biochemical
Assay type: biochemical
Conditions: B. taurus; dose 75 µM; Mean of replicates; read-out: Complex I activity, dose-response data
endpoint label: activity at 75 µM (%)

{"columns": ["compound", "endpoint label", "unit abbreviation", "observed result"],
 "data": [
  ["CC(C)Cc1ccc(C(C)c2nc3ccccc3n2C)cc1 (stereo not shown) [NPD8790]", "activity at 75 µM", "%", 13.6],
  ["COc1cc2c(cc1OC)C(c1ccc(-c3ccc(Cl)c(Cl)c3)o1)=NCC2 [NPD3577]", "activity at 75 µM", "%", 23.8],
  ["COc1cc2c(cc1OC)C(C(C)c1ccc(CC(C)C)cc1)=NCC2 (stereo not shown) [NPD10504]", "activity at 75 µM", "%", 3.63],
  ["COc1cc2c(cc1OC)C(/C=C/c1ccc(N(C)C)cc1)=NCC2 [NPD6303]", "activity at 75 µM", "%", 29.9]
]}
